target: AEA-DA lipid probe targets in Neuro2a cells (Mus musculus, UniProt Q8BHN3); conditions: competitor 25 μM
Sequence (Q8BHN3 33-944): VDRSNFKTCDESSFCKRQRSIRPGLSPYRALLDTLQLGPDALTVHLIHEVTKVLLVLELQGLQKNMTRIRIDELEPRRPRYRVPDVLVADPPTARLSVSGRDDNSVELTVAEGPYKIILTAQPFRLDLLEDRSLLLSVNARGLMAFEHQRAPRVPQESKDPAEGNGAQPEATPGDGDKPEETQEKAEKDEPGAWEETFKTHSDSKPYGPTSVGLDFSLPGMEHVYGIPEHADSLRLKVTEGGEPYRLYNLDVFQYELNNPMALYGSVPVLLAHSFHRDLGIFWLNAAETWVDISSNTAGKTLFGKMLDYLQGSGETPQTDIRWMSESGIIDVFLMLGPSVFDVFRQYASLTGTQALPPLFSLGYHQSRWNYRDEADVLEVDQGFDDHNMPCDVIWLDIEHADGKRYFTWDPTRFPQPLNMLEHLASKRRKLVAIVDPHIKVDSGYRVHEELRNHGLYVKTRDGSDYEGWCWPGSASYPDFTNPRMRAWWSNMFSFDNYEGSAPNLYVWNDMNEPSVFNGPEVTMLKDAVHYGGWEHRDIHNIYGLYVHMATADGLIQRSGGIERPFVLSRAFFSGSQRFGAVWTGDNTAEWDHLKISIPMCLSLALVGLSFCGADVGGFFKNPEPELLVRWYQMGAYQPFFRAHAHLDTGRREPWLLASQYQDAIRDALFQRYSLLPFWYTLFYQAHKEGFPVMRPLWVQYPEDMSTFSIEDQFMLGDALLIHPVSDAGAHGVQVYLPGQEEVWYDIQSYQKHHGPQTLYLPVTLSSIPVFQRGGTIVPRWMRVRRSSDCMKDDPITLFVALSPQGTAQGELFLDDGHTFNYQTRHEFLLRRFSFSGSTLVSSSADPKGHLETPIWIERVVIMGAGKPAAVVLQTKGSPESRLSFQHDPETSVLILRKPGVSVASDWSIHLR
testReadout: SILAC ratio Ganab

[Q] What does the record list as SILAC ratio Ganab for O=C(/C=C/c1cccnc1)NCCCCC1CCN(C(=O)c2ccccc2)CC1 [FK-866, reference compound] ?
[A] 1.1

[Q] What does the record list as SILAC ratio Ganab for C=CCN(C)CCCCCCOc1ccc(C(=O)c2ccc(Br)cc2)c(F)c1 [Ro 48-8071, reference compound] ?
[A] 0.9

[Q] What does the record list as SILAC ratio Ganab for CN1CCN(C(=O)c2[nH]c3ccc([N+](=O)[O-])cc3c2-c2ccccc2)CC1 ?
[A] 1.2

[Q] What does the record list as SILAC ratio Ganab for CN1CCN(C(=O)c2c(-c3ccccc3)c3cc([N+](=O)[O-])ccc3n2C)CC1 ?
[A] 1.3

###

target: AEA-DA lipid probe targets in Neuro2a cells (Mus musculus, UniProt Q8BTX9); conditions: competitor 25 μM
Sequence (Q8BTX9 whole entry): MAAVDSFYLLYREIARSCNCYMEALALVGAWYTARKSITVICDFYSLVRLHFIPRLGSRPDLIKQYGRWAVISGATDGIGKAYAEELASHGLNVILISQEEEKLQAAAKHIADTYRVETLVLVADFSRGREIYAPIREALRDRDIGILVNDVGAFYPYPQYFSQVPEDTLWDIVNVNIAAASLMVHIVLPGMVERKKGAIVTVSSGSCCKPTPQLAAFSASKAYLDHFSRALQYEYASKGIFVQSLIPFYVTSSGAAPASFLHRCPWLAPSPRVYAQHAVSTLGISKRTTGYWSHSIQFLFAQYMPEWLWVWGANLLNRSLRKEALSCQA
testReadout: SILAC ratio, Hsdl1

[Q] What does the record list as SILAC ratio, Hsdl1 for CN1CCN(C(=O)c2c(-c3ccccc3)c3cc([N+](=O)[O-])ccc3n2C)CC1 [KML110] ?
[A] 1.4

[Q] What does the record list as SILAC ratio, Hsdl1 for C=CCN(C)CCCCCCOc1ccc(C(=O)c2ccc(Br)cc2)c(F)c1 [Ro 48-8071, reference compound] ?
[A] 0.9

[Q] What does the record list as SILAC ratio, Hsdl1 for O=C(/C=C/c1cccnc1)NCCCCC1CCN(C(=O)c2ccccc2)CC1 [FK-866, reference compound] ?
[A] 1.0

[Q] What does the record list as SILAC ratio, Hsdl1 for CN1CCN(C(=O)c2[nH]c3ccc([N+](=O)[O-])cc3c2-c2ccccc2)CC1 [MJN228] ?
[A] 1.2

###

Hi there, I'd appreciate the recorded SILAC ratio, Adpgk for every entry that follows.
molecular target: AEA-DA lipid probe targets in Neuro2a cells (Mus musculus, UniProt Q8VDL4); conditions: competitor 25 μM
Sequence (Q8VDL4 23-496): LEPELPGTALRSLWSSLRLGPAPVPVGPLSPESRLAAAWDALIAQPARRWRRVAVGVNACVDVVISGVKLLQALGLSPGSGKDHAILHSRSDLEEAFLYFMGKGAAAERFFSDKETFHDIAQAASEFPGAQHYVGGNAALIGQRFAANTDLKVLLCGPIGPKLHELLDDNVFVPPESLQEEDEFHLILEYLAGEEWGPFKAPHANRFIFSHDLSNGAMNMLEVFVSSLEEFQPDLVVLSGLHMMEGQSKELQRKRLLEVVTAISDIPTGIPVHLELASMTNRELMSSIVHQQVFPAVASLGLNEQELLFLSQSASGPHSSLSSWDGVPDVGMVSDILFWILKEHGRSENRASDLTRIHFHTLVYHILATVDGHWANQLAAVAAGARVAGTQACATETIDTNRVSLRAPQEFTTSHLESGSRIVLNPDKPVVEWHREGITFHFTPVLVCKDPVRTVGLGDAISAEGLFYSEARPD
Enter the number alone.

[Q] Request: SILAC ratio, Adpgk, test system AEA-DA lipid probe targets in Neuro2a cells (Mus musculus, UniProt Q8VDL4), entry O=C(/C=C/c1cccnc1)NCCCCC1CCN(C(=O)c2ccccc2)CC1 [FK-866, reference compound]
[A] 1.2

[Q] Request: SILAC ratio, Adpgk, test system AEA-DA lipid probe targets in Neuro2a cells (Mus musculus, UniProt Q8VDL4), entry C=CCN(C)CCCCCCOc1ccc(C(=O)c2ccc(Br)cc2)c(F)c1 [Ro 48-8071, reference compound]
[A] 1.2

[Q] Request: SILAC ratio, Adpgk, test system AEA-DA lipid probe targets in Neuro2a cells (Mus musculus, UniProt Q8VDL4), entry CN1CCN(C(=O)c2[nH]c3ccc([N+](=O)[O-])cc3c2-c2ccccc2)CC1
[A] 1.7

[Q] Request: SILAC ratio, Adpgk, test system AEA-DA lipid probe targets in Neuro2a cells (Mus musculus, UniProt Q8VDL4), entry CN1CCN(C(=O)c2c(-c3ccccc3)c3cc([N+](=O)[O-])ccc3n2C)CC1
[A] 1.5

###

Hi there, I'd appreciate the recorded SILAC ratio Mtdh for every entry that follows.
target: AEA-DA lipid probe targets in Neuro2a cells (Mus musculus, UniProt Q80WJ7); conditions: competitor 25 μM
Sequence (Q80WJ7 whole entry): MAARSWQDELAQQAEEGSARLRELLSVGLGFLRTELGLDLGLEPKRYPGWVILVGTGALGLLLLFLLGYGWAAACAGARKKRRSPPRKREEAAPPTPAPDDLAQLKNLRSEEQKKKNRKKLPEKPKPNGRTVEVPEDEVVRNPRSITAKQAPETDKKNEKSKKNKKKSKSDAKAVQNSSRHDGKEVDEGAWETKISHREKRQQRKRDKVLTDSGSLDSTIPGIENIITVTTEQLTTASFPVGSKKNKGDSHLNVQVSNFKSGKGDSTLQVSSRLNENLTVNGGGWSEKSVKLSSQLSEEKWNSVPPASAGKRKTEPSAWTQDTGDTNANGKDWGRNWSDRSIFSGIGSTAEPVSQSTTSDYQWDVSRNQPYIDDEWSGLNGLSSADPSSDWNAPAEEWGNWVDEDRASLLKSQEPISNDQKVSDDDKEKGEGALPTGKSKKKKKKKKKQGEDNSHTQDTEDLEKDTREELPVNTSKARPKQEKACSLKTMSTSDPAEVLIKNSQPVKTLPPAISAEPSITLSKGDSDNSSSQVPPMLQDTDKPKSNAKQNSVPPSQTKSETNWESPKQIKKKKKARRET
Enter the number alone.

[Q] What does the record list as SILAC ratio Mtdh for C=CCN(C)CCCCCCOc1ccc(C(=O)c2ccc(Br)cc2)c(F)c1 [Ro 48-8071, reference compound] ?
[A] 1.2

[Q] What does the record list as SILAC ratio Mtdh for CN1CCN(C(=O)c2[nH]c3ccc([N+](=O)[O-])cc3c2-c2ccccc2)CC1 ?
[A] 1.5

[Q] What does the record list as SILAC ratio Mtdh for CN1CCN(C(=O)c2c(-c3ccccc3)c3cc([N+](=O)[O-])ccc3n2C)CC1 ?
[A] 1.5

[Q] What does the record list as SILAC ratio Mtdh for O=C(/C=C/c1cccnc1)NCCCCC1CCN(C(=O)c2ccccc2)CC1 [FK-866, reference compound] ?
[A] 1.2
